test.system: GLP-1 receptor (GLP-1R) (human, UniProt P43220 24-463)
assay.text: cell-based or functional assay
Non-standard residues stand in square brackets, D forms with d. Groups on a side chain read outwards from the residue. Primed or numbered codes have the meaning given here. No end group written: not given here. *: point of attachment. Dodecylbenzoate = dodecylbenzoyl lipid group; Stearoyl = CCCCCCCCCCCCCCCCCC(=O)*; αMeF = C[C@](N)(Cc1ccccc1)C(=O)O; αMeK = C[C@](N)(CCCCN)C(=O)O; Lauroyl = CCCCCCCCCCCC(=O)*; αMeS = C[C@](N)(CO)C(=O)O; PEG2′ = not defined here; Aib = CC(C)(N)C(=O)O
reported.metric: Primary assay EC50 (cAMP), Mean pM GLP-1R (pM)

Below, each entry is followed by its recorded Primary assay EC50 (cAMP), Mean pM GLP-1R result.
binder | experimental.result
H[Aib]EGS[αMeF]TSDV[αMeS]S[αMeF]LEGEAA[αMeK]E[αMeF]IA[αMeF]VVK([PEG2′-Stearoyl])GG-NH2 [SEQ ID NO 188] | 125
H[Aib]EGS[αMeF]TSDV[αMeS]S[αMeF]LEGEAA[αMeK]E[αMeF]IA[αMeF]VVK([PEG2′-PEG2′-PEG2′-Stearoyl])GG-NH2 [SEQ ID NO 199] | 18.3
H[Aib]EGS[αMeF]TSDV[αMeS]S[αMeF]LEGEAA[αMeK]E[αMeF]IA[αMeF]VVK([PEG2′-PEG2′-Dodecylbenzoate])GG-NH2 [SEQ ID NO 180] | 2.2

(I) H[Aib]EGS[αMeF]TSDV[αMeS]S[αMeF]LEGEAA[αMeK]E[αMeF]IA[αMeF]VVK([PEG2′-PEG2′-Lauroyl])GG-NH2 [SEQ ID NO 171]
(II) H[Aib]EGS[αMeF]TSDV[αMeS]S[αMeF]LEGEAAK([PEG2′-PEG2′-Stearoyl])E[αMeF]IA[αMeF]VV[αMeK]GG-NH2 [SEQ ID NO 153]
input: Compare reported Primary assay EC50 (cAMP), Mean pM GLP-1R values for I and II . Which is lower? Your choice should be expressed through its label.
output: I
